# assayedTarget: KDR (Homo sapiens (Human))
# Sequence (P35968 20-1356): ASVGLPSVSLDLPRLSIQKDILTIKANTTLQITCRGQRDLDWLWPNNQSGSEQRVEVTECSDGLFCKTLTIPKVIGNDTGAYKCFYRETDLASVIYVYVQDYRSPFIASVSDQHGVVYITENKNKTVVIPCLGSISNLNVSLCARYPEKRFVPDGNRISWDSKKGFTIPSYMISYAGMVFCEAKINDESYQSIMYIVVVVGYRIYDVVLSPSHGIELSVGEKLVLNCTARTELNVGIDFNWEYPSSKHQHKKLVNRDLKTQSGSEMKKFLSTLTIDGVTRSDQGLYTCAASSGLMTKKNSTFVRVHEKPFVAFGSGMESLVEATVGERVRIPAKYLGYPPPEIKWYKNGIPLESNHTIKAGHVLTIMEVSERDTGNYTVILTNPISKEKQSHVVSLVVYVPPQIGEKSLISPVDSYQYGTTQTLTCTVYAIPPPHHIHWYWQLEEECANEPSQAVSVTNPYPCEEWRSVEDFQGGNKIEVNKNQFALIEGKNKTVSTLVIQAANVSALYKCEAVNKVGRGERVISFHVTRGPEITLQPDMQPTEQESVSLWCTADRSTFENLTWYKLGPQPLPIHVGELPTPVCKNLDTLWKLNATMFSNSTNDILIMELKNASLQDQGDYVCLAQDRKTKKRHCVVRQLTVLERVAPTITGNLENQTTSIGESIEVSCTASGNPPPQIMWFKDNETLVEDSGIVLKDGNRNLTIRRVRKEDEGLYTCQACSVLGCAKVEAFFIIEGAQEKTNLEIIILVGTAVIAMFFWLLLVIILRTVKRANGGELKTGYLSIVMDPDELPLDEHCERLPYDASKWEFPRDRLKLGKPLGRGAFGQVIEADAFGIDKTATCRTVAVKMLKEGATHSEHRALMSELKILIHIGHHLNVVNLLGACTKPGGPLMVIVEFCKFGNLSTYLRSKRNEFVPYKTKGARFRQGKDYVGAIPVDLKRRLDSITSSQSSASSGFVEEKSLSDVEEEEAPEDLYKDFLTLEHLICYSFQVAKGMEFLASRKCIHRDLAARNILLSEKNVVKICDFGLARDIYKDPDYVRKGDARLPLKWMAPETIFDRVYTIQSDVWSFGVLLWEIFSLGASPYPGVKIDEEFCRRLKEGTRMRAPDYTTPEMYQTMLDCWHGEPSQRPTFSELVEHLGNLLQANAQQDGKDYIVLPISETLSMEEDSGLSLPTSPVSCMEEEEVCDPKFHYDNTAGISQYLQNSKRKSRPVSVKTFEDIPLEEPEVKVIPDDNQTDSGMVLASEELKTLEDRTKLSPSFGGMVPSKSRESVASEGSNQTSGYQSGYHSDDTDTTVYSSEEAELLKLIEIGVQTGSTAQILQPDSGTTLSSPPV
# experimentNotes: KDR autophosphorylation ELISA in HUVEC cells
# conditionNotes: cellular, VEGF165 stimulated
pIC50: −log10 of the molar value.
measureName: pIC50

Consider the reported pIC50 for these compounds:
// query Request: pIC50, test system KDR (Homo sapiens (Human)), entry COCCNc1cc2nccc(Oc3ccc(NC(=O)C4(C(=O)Nc5ccc(F)cc5)CC4)cc3)c2cc1C(N)=O
// result 7.00 to 8.00

// query For the record COCCOc1cc2nccc(Oc3ccc(NC(=O)C4(C(=O)Nc5ccc(F)cc5)CC4)cc3)c2cc1C(N)=O , what value of pIC50 is listed for KDR (Homo sapiens (Human))?
// result ≥ 8.00

// query For KDR (Homo sapiens (Human)), provide pIC50 of NC(=O)c1cc2c(Oc3ccc(NC(=O)C4(C(=O)Nc5ccc(F)cc5)CC4)cc3)ccnc2cc1F please.
// result 6.52 to 7.00

Now for another entry.
// query # query: pIC50 | item COc1cc2nccc(Oc3ccc(NC(=O)C4(C(=O)Nc5ccc(F)cc5)CC4)cc3)c2cc1S(C)(=O)=O | system: KDR (Homo sapiens (Human))
// result ≥ 8.00
